Molecular target: T1, human MSLN-R2-his protein (human, UniProt Q13421 391-486)
T1 construct: Region 2 of human MSLN, His-tagged; also called human MSLN-R2 protein; hMSLN-R2-his; not shown: His tag
T1 sequence (Q13421 other isoform, or with tags, fused parts or gaps): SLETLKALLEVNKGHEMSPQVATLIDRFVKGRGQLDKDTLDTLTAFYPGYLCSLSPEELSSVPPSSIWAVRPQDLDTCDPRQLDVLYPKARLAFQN
Test: ELISA, coated MSLN-R2;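 further: chimeric antibodies bound to blocked coated plates for 2 h at 37 °C, TMB colour development stopped with HCl, with a negative control antibody for comparison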
I'd appreciate it if you could supply OD450 at 100 nM values for the items below.
Lab book: enter the figure in OD450, no units written.

-- ask Specify reported OD450 at 100 nM for the binder shown: S009-F1.25.10 (antibody, human IgG1, kappa, V domains shown, Human-murine chimeric antibody, human IgG1/kappa constant regions) VH: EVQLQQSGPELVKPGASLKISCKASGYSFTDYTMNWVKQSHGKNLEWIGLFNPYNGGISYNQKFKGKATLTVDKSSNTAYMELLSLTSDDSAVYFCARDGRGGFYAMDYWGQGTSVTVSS VL: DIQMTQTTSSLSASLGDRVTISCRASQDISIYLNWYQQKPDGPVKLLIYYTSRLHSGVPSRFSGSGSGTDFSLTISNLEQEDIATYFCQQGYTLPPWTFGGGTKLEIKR
-- reply 0.05

-- ask Specify reported OD450 at 100 nM for the binder shown: S009-F1.2.12 (antibody, human IgG1, kappa, V domains shown) VH: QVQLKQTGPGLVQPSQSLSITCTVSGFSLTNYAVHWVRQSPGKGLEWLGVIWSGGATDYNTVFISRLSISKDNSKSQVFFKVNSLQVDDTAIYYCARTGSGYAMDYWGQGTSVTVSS VL: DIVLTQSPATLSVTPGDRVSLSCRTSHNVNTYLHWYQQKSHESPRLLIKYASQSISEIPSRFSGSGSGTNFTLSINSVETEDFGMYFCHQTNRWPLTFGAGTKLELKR
-- reply 1.44
